Molecular target: T1, FNPCP, CP of an uncharacterized NRP gene cluster from Fischerella
T1 chain: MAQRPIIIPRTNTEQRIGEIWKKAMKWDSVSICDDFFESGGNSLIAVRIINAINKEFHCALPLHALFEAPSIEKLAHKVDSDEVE
recorded-metric: kcat (min⁻¹)
// note: answer is a bare numeric in min⁻¹

Sample answers from the record:
1. MPPT, Sfp-like phosphopantetheinyl transferase (PPTase) from Microcystis aeruginosa NIES843 (protein) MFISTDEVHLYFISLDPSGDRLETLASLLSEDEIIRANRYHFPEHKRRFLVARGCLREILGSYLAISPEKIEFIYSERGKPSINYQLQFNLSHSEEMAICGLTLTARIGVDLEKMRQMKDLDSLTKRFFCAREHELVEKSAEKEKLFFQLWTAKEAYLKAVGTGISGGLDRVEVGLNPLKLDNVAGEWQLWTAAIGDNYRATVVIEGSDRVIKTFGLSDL : 9.6
2. Sfp, phosphopantetheinyl transferase from Bacillus subtilis (protein) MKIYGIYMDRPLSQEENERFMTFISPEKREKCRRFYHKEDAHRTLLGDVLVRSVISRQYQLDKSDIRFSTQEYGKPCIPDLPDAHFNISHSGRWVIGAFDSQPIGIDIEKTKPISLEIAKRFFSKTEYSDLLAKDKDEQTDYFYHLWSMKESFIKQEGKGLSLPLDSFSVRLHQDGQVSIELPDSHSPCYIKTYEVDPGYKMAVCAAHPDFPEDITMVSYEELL : 14.5

Please look at the following protein next.
q: Form field: reported kcat of APPT, Sfp-like phosphopantetheinyl transferase (PPTase) from Anabaena sp. PCC7120 (protein) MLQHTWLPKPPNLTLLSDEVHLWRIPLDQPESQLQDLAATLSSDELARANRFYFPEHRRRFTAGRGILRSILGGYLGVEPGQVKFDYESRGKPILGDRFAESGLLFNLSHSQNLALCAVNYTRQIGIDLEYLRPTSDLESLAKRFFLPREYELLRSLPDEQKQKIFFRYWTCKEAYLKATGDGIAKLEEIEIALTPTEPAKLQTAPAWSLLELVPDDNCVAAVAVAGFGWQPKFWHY
a: 12.2

Data credit: patent US20210087522
